# koff per entry
- ASSAY TARGET: Clade B BaL gp120 protein (HIV-1 Clade B, BaL)
- ASSAY PROTOCOL: BLI (Octet), IgG on anti-hIgG Fc sensor, gp120 analyte, 1:1 fit
Answer in s⁻¹, number only, no unit symbol.

Solved cases below.
>  <BINDER>
Hydro2 (antibody, V domains shown) VH: ADLVQSGAVVKKPGDSVRISCEAQGYRFPDYIIHWIRRAPGQGPEWMGWMNPMGGQVNIPQKFQGRVSMTRDTSIETAFLDLRGLKSDDTAVYYCVRDRSNGSGKRFESSNWFLDLWGRGTAVTIQS VL: QSALTQPRSVSASPGQSVTISCTGTHNLVSWCQHQPGRAPKLLIYDFNKRPSGVPDRFSGSGSGGTASLTITGLQDDDDAEYFCWAYENFGGGTKLTVL

>  <koff, s⁻¹>
7.18e-05

$$$$
>  <BINDER>
Germ17 (antibody, V domains shown) VH: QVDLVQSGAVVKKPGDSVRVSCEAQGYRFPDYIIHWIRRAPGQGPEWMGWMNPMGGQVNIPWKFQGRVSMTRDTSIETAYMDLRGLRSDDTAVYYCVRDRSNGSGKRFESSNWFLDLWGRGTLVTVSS VL: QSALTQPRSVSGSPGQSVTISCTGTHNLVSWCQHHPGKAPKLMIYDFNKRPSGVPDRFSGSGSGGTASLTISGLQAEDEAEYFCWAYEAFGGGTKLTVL

>  <koff, s⁻¹>
5.15e-05

$$$$

// switching to the query binder
Given NglycoNDplus6 (antibody, V domains shown) VH: ADLVQSGAVVKKPGDSVRISCEAQGYTFPDYIIHWIRRAPGQGPEWMGWMNPMGGQVNIPWKFQGRVSMTRDTSIETAFLDLRGLKSDDTAVYYCVRDRGDGSRRHFDSSNWFLDLWGRGTAVTIQS VL: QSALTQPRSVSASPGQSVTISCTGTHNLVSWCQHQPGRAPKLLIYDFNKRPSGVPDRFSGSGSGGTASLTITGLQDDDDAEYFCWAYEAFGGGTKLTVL , state its recorded koff.
0.0006

Value source: patent US20210040184A1
